Test system: Escherichia coli
Procedure Text: In vitro antibacterial activity was measured on gram negative bacteria Escherichia coli UBMS 90-5 sensitive cell lines
Type: functional
Quantity: MIC

compound="COC(=O)Nc1ccc2c(c1O)C(=O)C1=C(O)[C@]3(O)C(O)=C(C(N)=O)C(=O)[C@@H](N(C)C)C3[C@@H](O)C1[C@H]2C (stereo partly drawn)" target_entity="Escherichia coli" recorded_result="> 32 µg/mL"
compound="CC(C)C[C@H](N)C(=O)NCC(=O)Nc1ccc2c(c1O)C(=O)C1=C(O)[C@]3(O)C(O)=C(C(N)=O)C(=O)[C@@H](N(C)C)C3[C@@H](O)C1[C@H]2C (stereo partly drawn)" target_entity="Escherichia coli" recorded_result="> 32 µg/mL"

Request: Reported MIC for Escherichia coli, given CC(C)C(=O)Nc1ccc2c(c1O)C(=O)C1=C(O)[C@]3(O)C(O)=C(C(N)=O)C(=O)[C@@H](N(C)C)C3[C@@H](O)C1[C@H]2C (stereo partly drawn) ?
Result: > 32 µg/mL
